Biological target: human MOPr (Homo sapiens);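 for MOPr (cAMP) Emax: Emax relative to DAMGO as 100%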
Sequence (P35372 whole entry): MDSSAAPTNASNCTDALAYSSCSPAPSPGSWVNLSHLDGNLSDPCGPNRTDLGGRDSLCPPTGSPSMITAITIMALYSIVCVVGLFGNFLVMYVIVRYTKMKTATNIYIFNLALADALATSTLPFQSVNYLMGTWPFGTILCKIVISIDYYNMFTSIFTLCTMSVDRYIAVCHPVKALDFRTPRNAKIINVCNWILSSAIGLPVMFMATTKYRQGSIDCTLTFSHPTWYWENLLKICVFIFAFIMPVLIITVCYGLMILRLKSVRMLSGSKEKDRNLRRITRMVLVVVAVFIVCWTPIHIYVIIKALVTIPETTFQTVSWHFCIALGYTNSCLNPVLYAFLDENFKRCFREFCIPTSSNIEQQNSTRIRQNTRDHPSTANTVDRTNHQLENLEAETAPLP
Assay: cell-based
Type: cell-based
Set-up: expressed in transfected cells; HEK293-Glo20F cells (cAMP)
Conditions: read-out: MOPr (cAMP) Emax
Starred links: 1 amine or outer side, 2 acyl side, 3 side chain; linkers in the order of their positions; H or OH if unused. Non-standard residues stand in square brackets, D forms with d. Residues, ends and D or L forms follow the SMILES beside them. Nva(5-(4-Bn-piperidin-1-yl)) = N[C@@H](CCCN1CCC(Cc2ccccc2)CC1)C(=O)O; X1 = O=C1[C@@H](N[*:1])Cc2ccccc2CN1CCC(=O)[*:2]; Dmt = Cc1cc(O)cc(C)c1C[C@H](N)C(=O)O
endpoint-label: Emax (%)
// return numeric value only (unit: %, not printed)

Known results for compounds:
Cc1cc(O)cc(C)c1C[C@H](N)C(=O)N[C@H](CCCNC(=N)N)C(=O)N[C@H]1Cc2ccccc2CN(CCC(=O)N[C@@H](CCCN2CCC(Cc3ccccc3)CC2)C(=O)N[C@@H](Cc2c[nH]c3ccccc23)C(N)=O)C1=O [DP0005, H-Dmt-D-Arg-Aba-β-Ala-Bpa-Trp-NH2] (H-[Dmt][dR][X1][Nva(5-(4-Bn-piperidin-1-yl))]W-NH2) ... 81
Cc1cc(O)cc(C)c1C[C@H](N)C(=O)N[C@H](CCCNC(=N)N)C(=O)N[C@@H](Cc1ccccc1)C(=O)NCCC(=O)N[C@@H](CCCN1CCC(Cc2ccccc2)CC1)C(=O)N[C@@H](Cc1ccccc1)C(N)=O [DP0019, H-Dmt-D-Arg-Phe-β-Ala-Bpa-Phe-NH2] (HELM PEPTIDE1{[Cc1cc(O)cc(C)c1C[C@H](N)C(=O)[*:2]].[dR].F.[bAla].[O=C([C@H](CCCN1CCC(Cc2ccccc2)CC1)N[*:1])[*:2]].F.[am]}$$$$V2.0) ... 101

Pending compound:
QUERY: Return reported Emax. Input compound: "Cc1cc(O)cc(C)c1C[C@H](N)C(=O)N[C@H](CCCNC(=N)N)C(=O)N[C@H]1Cc2c(ccc3ccccc23)CN(CC(=O)N[C@@H](CCCN2CCC(Cc3ccccc3)CC2)C(=O)N[C@@H](Cc2c[nH]c3ccccc23)C(N)=O)C1=O"
RESULT: 61

All figures here come from patent US20210002231A1.
